Attribution: ChEMBL document CHEMBL3507680

- Assay Info: Human HepG2 cell viability assay in 384 well format
- Format: toxicity, cell-based
- Parameters: dose 125 nL, time 70.5 hour; concentration not given beside the values
- Stated Conditions: HepG2 cells, read-out: Inhibition
// values below are reported cytotoxicity at 70.5 h
Number only, in %; omit the unit.

CCc1ncncc1C(=O)NC1CCc2nc(C)cn2C1 (stereo unspecified)    -1.22
O=C(CN1C=Nc2ccccc2S1(=O)=O)NCC1CC1    -7.99
Cn1ccnc1-c1cccc(NC(=O)NCCCO)c1    1.83
CC(C)(C)OC(=O)N1CCN(c2cccnc2)CC1C(=O)O (stereo unspecified)    -0.358
COCCNC(=O)N1CCCC(COc2ccccc2)C1 (stereo unspecified)    1.11

Incoming: GET /values?readout=cytotoxicity at 70.5 h&item= `O=S(=O)(C1CC1)N1CCCn2nnc(Cn3cccc3)c2C1`
Outgoing: -8.69

* * *

- Assay Info: Human HepG2 cell viability assay in 384 well format
- Assay type: toxicity, cell-based
- Parameters: dose 125 nL, time 70.5 hour; concentration not given beside the values
- Stated Conditions: HepG2 cells, read-out: Inhibition
// values below are reported cytotoxicity at 70.5 h
Number only, in %; omit the unit.

COc1cccc(CN2CCN(c3cccc(C(C)C)n3)CC2)c1F    -0.272
O=C(NCC1(N2CCOCC2)CCSC1)Nc1ccc(F)cc1 (centres undefined)    -6.94
Cc1n[nH]c(C)c1CN(C)C(C(=O)O)c1c(F)cccc1OC(C)C (centres undefined)    -4.07
CCNc1ncc(C(=O)N[C@H](C(N)=O)c2ccccc2)cn1    24
Cc1cc(C)n(C2CCCN(C(=O)Cc3cccc(F)c3)C2)n1 (centres undefined)    -9.48
Cc1ccsc1C1CCCCCN1Cc1cn(C)nc1C (centres undefined)    -13.5
CCS(=O)(=O)N1CCc2c(COCc3ccncc3)cncc2C1    18.9
C[C@@H]1CN(C(=O)c2ccc(C#N)nc2)CC[C@@]1(O)C1CCOCC1    -9.58

Incoming: GET /values?readout=cytotoxicity at 70.5 h&item= `Cc1cnc(CN(Cc2cccc(O)c2)CC2CC2)cn1`
Outgoing: -6.41

Incoming: Now this one: `CCc1ccc(NC(=O)c2cnc(N3CCN(C)CC3)nc2C)cc1`
Outgoing: 36.8

Incoming: Now this one: CN1CCC(NC(=O)Nc2cnn(-c3ccccc3Cl)c2)C1=O (centres undefined)
Outgoing: -7.73

Incoming: Now this one: `COc1ccc([C@@H]2CN(C(=O)c3cscn3)C[C@H]2C(=O)O)cc1`
Outgoing: -3.2

Incoming: Now this one: `Cc1ccc(N2CC[C@H]3OCC[C@@]3(C(=O)NC(C)C)C2)nn1`
Outgoing: 1.98

Incoming: Now this one: CN(C)C(c1ccccn1)[C@H]1CC[C@H](CNC(=O)CC2CCCC2)CC1 (some centres undefined)
Outgoing: -7.26

Incoming: Now this one: CCOc1ncccc1NC(=O)N1CCCC1c1cc(C)no1 (centres undefined)
Outgoing: -8.02

Incoming: Now this one: `CN(C)c1cccc(C(=O)N2CCn3c(nnc3C3CC3)C2)c1`
Outgoing: 19.2

Incoming: Now this one: `CN(C)c1ncccc1CNC(=O)NCc1ccc(Cl)s1`
Outgoing: -10.4

Incoming: Now this one: CN(Cc1ccccn1)C(=O)CC1CCOc2ccccc21 (centres undefined)
Outgoing: -8.29

Incoming: Now this one: `O=C(NCCSc1ccccc1F)NCc1cccnc1`
Outgoing: -6.59

Incoming: Now this one: `O=C(Cn1ncc2c(c1=O)CCCCC2)Nc1cccc2[nH]ccc12`
Outgoing: 3.91

Incoming: Now this one: c1cnc(Nc2cncc(C3CCCN3)n2)cn1 (centres undefined)
Outgoing: -3.08

Incoming: Now this one: `CC1CCN(C(=O)c2ccn(COc3ccc(F)cc3)n2)CC1`
Outgoing: -6.36

Incoming: Now this one: CCOCC1CCN(C(=O)Nc2ccc(-c3csnn3)cc2)C1 (centres undefined)
Outgoing: -11.9

Incoming: Now this one: `Cc1cc(C(=O)NS(C)(=O)=O)ccc1I`
Outgoing: -4.1
